target: Cdk2(N272C) (C177A) (Homo sapiens, UniProt P24941, C177A/N272C); construct: poly-histidine; made in house; host or cells: E. coli; test: Kinetic thiol consumption assay with Cdk2 mutant N272C; type: binding; set-up: key: rate constant with Cdk2 ÷ rate constant with model thiol (fold); conditions: Cdk2 N272, additional mutation C177A
reported-property: Rate enhancement, Cdk2 N272
Please give only the number in your answer, with no unit.

What value of Rate enhancement, Cdk2 N272 has been reported for the following molecule? C=CC(=O)NC1C[C@@H](C(=C)C)CC=C1C (some centres unmarked) [EL-1074]
0.6473

And for C=CC(=O)Nc1cccc(C(F)(F)F)c1 [BN-80] ?
0.2072

And for C=CC(=O)N1CCCC1c1ccc(OC)cc1 (centres unmarked) [EL-1062] ?
0.3073

And for C=CC(=O)N(C(=O)C=C)c1c2ccccc2n2c(C)nc3ccccc3c12 [CA-152] ?
0

And for C=CC(=O)N1CCC2CCC(C1)N2C (centres unmarked) [CA-143] ?
0.4942

Others:
What value of Rate enhancement, Cdk2 N272 has been reported for the following molecule? C=CC(=O)N(CC(=O)N1CCCC1)CC1CCCO1 (centres unmarked) [CA-080/239]
0.2756

And for C=CC(=O)Nc1nc2c(s1)CCCCCC2 [CA-170] ?
0.4672

And for Cn1cc(S(=O)(=O)N2CCOCC2)cc1C(=O)NC(=O)CCl [EN002] ?
1.133

And for C=CC(=O)NC1(C(N)=O)CCCCC1 [EL-1170] ?
0.3641

And for C=CC(=O)NC1C2C3CCC(C3)C12 (centres unmarked) [CA-097] ?
0.5898

And for C=CC(=O)N1CCN(S(C)(=O)=O)CC1c1ccccc1 (centres unmarked) [EL-1160] ?
0.5689

----------
Recorded Rate enhancement, Cdk2 WT by entry
biological target: human cyclin-dependent kinase 2 (Cdk2) (Homo sapiens); construct: poly-histidine; made in house; host or cells: E. coli; experiment: Kinetic thiol consumption assay with wild type Cdk2 (C177); format: binding; set-up: key: k(Cdk2) divided by k(model thiol); settings: Cdk2 WT, no additional mutations
Please give only the number in your answer, with no unit.

# annotated cases, reported Rate enhancement, Cdk2 WT shown
What value of Rate enhancement, Cdk2 WT has been reported for the following molecule? C=CC(=O)NCCNC(=O)C1CCCN1S(=O)(=O)c1ccccc1 (stereo not shown) [CA-224]
0.4112

And for C=CC(=O)NCC1CCCN1S(=O)(=O)c1ccc(C)cc1 (stereo not shown) [CA-118] ?
1.749

And for C=CC(=O)N1CCC(NC(=O)C2CCC2)C1 (stereo not shown) [CA-088] ?
0.3054

And for C=CC(=O)N(C1CC1)C1CCCCC1C1CCCCC1 (stereo not shown) [CA-081/240] ?
7.599

And for C=CC(=O)Nc1ccccc1C(=O)c1ccccc1 [EL-1004] ?
3.558

And for C=CC(=O)NC1(c2noc(C)n2)CCCCCC1 [CA-162] ?
0.5566

Others:
What value of Rate enhancement, Cdk2 WT has been reported for the following molecule? C=CC(=O)NCC1(NC(=O)OC(C)(C)C)CCCCC1 [EL-1143]
4.291
